Source of measurements: patent US11202773B2

Molecular target: human COX-2 (Homo sapiens)
Sequence (P35354 18-604): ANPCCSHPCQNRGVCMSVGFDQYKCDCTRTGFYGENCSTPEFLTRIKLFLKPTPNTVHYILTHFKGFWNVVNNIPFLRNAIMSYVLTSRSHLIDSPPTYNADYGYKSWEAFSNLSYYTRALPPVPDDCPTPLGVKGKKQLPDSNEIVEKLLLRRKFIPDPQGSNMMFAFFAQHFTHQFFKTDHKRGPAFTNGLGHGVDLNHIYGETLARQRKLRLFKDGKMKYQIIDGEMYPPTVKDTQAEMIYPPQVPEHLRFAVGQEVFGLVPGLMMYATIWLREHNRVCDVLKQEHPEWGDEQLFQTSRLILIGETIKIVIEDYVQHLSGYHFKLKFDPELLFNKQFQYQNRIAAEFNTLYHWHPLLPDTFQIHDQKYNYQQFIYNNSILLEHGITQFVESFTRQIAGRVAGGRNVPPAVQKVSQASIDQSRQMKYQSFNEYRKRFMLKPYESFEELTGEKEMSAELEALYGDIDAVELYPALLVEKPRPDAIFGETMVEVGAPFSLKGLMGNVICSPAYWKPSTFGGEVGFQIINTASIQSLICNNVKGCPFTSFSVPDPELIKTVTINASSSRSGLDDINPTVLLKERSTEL
Test: COX-2 activity (PGE2 production) in HCA-7 cells after A23187
Assay type: cell-based
Design: HCA-7 is a human colon cancer cell line in which COX-2 protein is constitutively expressed; endogenous in cells; host or cells: HCA-7
Conditions: 30 min pre-incubation, 10 μM A23187, another 30 minutes
Protocol: First, the inhibitory effects of the new synthesized compounds on COX-2 were assayed in two cell lines: Raw264.7 cells and HCA-7 cells. Raw264.7 is a mouse macrophage cell line which expresses a high level of COX-2 protein upon lipopolysaccharide (LPS) induction. […] The system was incubated for another 30 minutes and PGE2 concentrations in the culture medium were determined. […]
Entries and their measured IC50 follow.
measured_property: IC50 (µM)

{"compound": "Cc1ccc(-c2cc(COc3ccccc3O)nn2-c2ccc(S(N)(=O)=O)cc2)cc1 [Compound 6a1]", "units_of_measure": "µM", "quantitative_readout": 0.195}
{"compound": "CCOC(=O)c1cc(-c2ccc(C)cc2)n(-c2ccc(S(N)(=O)=O)cc2)n1 [Compound 3a]", "units_of_measure": "µM", "quantitative_readout": 0.149}
{"compound": "Cc1ccc(-c2cc(COc3ccc4c(=O)c(O)c(-c5ccccc5)oc4c3)nn2-c2ccc(S(N)(=O)=O)cc2)cc1 [Compound 6a4]", "units_of_measure": "µM", "quantitative_readout": 0.162}
{"compound": "Cc1ccc(-c2cc(COc3ccc(O)cc3)nn2-c2ccc(S(N)(=O)=O)cc2)cc1 [Compound 6a3]", "units_of_measure": "µM", "quantitative_readout": 0.064}
{"compound": "Cc1ccc(-c2cc(COc3cccc(O)c3)nn2-c2ccc(S(N)(=O)=O)cc2)cc1 [Compound 6a2]", "units_of_measure": "µM", "quantitative_readout": 0.134}

---

molecular target: mouse COX-2 (Mus musculus, UniProt Q05769); construct: Raw264.7 is a mouse macrophage cell line which expresses a high level of COX-2 protein upon lipopolysaccharide (LPS) induction; endogenous in cells; host or cells: Raw264.7 (LPS-induced); test: COX-2 activity (PGD2/PGE2 production) in LPS-induced Raw264.7 cells; format: cell-based; details: 0.1 μg/mL LPS, 14 hours co-incubation
Sequence (Q05769 18-604): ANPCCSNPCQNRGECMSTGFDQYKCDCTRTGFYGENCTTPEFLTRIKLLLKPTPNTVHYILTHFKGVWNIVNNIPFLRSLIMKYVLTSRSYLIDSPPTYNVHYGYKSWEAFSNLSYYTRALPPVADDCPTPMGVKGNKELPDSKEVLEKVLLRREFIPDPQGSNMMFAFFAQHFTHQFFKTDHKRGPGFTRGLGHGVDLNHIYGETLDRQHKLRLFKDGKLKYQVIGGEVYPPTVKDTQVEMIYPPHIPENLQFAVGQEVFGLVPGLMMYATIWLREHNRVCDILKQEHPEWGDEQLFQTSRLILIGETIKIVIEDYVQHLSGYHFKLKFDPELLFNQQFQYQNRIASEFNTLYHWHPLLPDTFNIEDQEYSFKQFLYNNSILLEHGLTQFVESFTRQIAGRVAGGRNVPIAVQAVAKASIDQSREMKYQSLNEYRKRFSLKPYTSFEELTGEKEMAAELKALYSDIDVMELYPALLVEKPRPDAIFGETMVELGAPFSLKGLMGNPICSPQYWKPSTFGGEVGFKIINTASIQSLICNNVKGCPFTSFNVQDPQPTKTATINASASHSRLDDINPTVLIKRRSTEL
Entries and their measured IC50 follow.

{"compound": "Cc1ccc(-c2cc(COc3cccc(O)c3)nn2-c2ccc(S(N)(=O)=O)cc2)cc1 [Compound 6a2]", "target_under_test": "mouse COX-2 (Mus musculus, UniProt Q05769)", "IC50": "4.62 µM"}
{"compound": "COc1ccc(-c2cc(COc3ccc(O)cc3)nn2-c2ccc(S(N)(=O)=O)cc2)cc1 [Compound 6c3]", "target_under_test": "mouse COX-2 (Mus musculus, UniProt Q05769)", "IC50": "0.019 µM"}
{"compound": "Cc1ccc(-c2cc(COc3ccc4c(=O)c(O)c(-c5ccccc5)oc4c3)nn2-c2ccc(S(N)(=O)=O)cc2)cc1 [Compound 6a4]", "target_under_test": "mouse COX-2 (Mus musculus, UniProt Q05769)", "IC50": "0.303 µM"}
{"compound": "Cc1ccc(-c2cc(COc3ccc(O)cc3)nn2-c2ccc(S(N)(=O)=O)cc2)cc1 [Compound 6a3]", "target_under_test": "mouse COX-2 (Mus musculus, UniProt Q05769)", "IC50": "0.019 µM"}
{"compound": "NS(=O)(=O)c1ccc(-n2nc(COc3cccc(O)c3)cc2-c2ccccc2)cc1 [Compound 6b2]", "target_under_test": "mouse COX-2 (Mus musculus, UniProt Q05769)", "IC50": "4.31 µM"}
{"compound": "Cc1ccc(-c2cc(COc3ccccc3O)nn2-c2ccc(S(N)(=O)=O)cc2)cc1 [Compound 6a1]", "target_under_test": "mouse COX-2 (Mus musculus, UniProt Q05769)", "IC50": "1.39 µM"}
{"compound": "COc1ccc(-c2cc(COc3cccc(O)c3)nn2-c2ccc(S(N)(=O)=O)cc2)cc1 [Compound 6c2]", "target_under_test": "mouse COX-2 (Mus musculus, UniProt Q05769)", "IC50": "2.38 µM"}
{"compound": "CCOC(=O)c1cc(-c2ccc(C)cc2)n(-c2ccc(S(N)(=O)=O)cc2)n1 [Compound 3a]", "target_under_test": "mouse COX-2 (Mus musculus, UniProt Q05769)", "IC50": "0.071 µM"}
{"compound": "NS(=O)(=O)c1ccc(-n2nc(COc3ccc(O)cc3)cc2-c2ccccc2)cc1 [Compound 6b3]", "target_under_test": "mouse COX-2 (Mus musculus, UniProt Q05769)", "IC50": "0.033 µM"}
